study.system: MAGE-A11:PCF11 interaction (GST-MAGE-A11 MHD and FAM-PCF11_4) (Homo sapiens)
Construct: GST-MAGE-A11 MHD (human MAGE-A11 MHD amino acid 218-429); made in house; host or cells: E. coli BL21(DE3)
Sequence (P43364 218-429): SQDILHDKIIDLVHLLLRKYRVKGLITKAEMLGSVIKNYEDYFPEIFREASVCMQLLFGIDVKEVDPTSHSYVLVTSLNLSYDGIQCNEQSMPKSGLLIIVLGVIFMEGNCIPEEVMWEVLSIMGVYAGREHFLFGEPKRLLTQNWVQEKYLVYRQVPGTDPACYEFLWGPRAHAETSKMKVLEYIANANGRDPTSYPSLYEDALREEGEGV
protocol.text: TR-FRET dose response test of compounds for disruption of MAGE-A11:PCF11 binding
assay.metric: IC50 (µM)
Answers are plain numbers, in µM.

Challenge: // Input: COP(=O)(OC)c1nc(-c2ccc(Cl)cc2)oc1N1CCOCC1 [SJ000090185-1] . Output its IC50 only.
Response given: 17.4
